tested on: HepG2; experiment: cytotoxicity call (relative viability < 0.9); conditions: 10 µM
Hit rate of the full screen: of about 39,000 compounds, about 3,300 (8.5%) were called active. This is one part of a sample in which actives are shown more often than they occur.
Write down one outcome, taken from active, inactive

IN: Please indicate how the test categorized `COCCCCC(=NOCCN)c1ccc(C(F)(F)F)cc1.O=C(O)C=CC(=O)O` .
OUT: active

IN: Could you do the same for `CC[C@H](C)[C@H]1O[C@]2(C=C[C@@H]1C)C[C@@H]1C[C@@H](C/C=C(\C)[C@@H](O[C@H]3C[C@H](OC)[C@@H](O[C@H]4C[C@H](OC)[C@@H](NC(C)=O)[C@H](C)O4)[C@H](C)O3)[C@@H](C)/C=C/C=C3\CO[C@@H]4[C@H](O)C(C)=C[C@@H](C(=O)O1)[C@]34O)O2` , please?
OUT: active

IN: Try `CCCC#Cc1ccc2c(c1)O[C@@H](CN(C)S(=O)(=O)c1cccc(F)c1)[C@H](C)CN([C@@H](C)CO)S2(=O)=O` next.
OUT: inactive

IN: Another: `COc1ccc(CN(C)C[C@@H]2Oc3ccc(NS(=O)(=O)c4cn(C)cn4)cc3C(=O)N([C@H](C)CO)C[C@@H]2C)cc1`
OUT: inactive

IN: Another compound: `O=C(O)CCC(=O)c1ccc(-c2ccccc2)cc1`
OUT: inactive

IN: Next record, please: `C[C@H](CO)N1C[C@H](C)[C@@H](CN(C)C(=O)Nc2ccc(F)cc2)Oc2ccc(NC(=O)CCCCCC(=O)Nc3ccccc3N)cc2CC1=O`
OUT: inactive

IN: And what about the compound `C[C@@H]1CN([C@H](C)CO)C(=O)c2cc(NS(=O)(=O)c3cn(C)cn3)ccc2O[C@@H](C)CCCCO[C@@H]1CN(C)S(=O)(=O)c1cccs1` ?
OUT: inactive

IN: Subsequent entry: `COc1ccc(-c2cnc3c(c2)C(=O)N([C@@H](C)CO)C[C@@H](C)[C@H](CN(C)C(=O)Cc2ccncc2)O3)cc1`
OUT: inactive
